Assay: Quantitative High-Throughput drug screen in 47 multiple myeloma cell lines against the NCATS MIPE library collection: KMS34_JCRB cell viability assay (AID 1918985); also: potency is read from the fitted curve at half-maximal effect; nearly all actives have a fitted effect of over 40% in size
Conditions: KMS34 myeloma viability, CellTiter-Glo ATP luminescence, 48 h; series mostly up to 45.8 µM
Records with an inconclusive call do not appear. Active and inactive are the calls of the source. Calls follow the shape of the dose curve; as a rule, active = well fitted cell-killing curve with a large enough effect; inconclusive = small, poorly fitted or top-dose-only effect, or effect the other way; inactive = no such curve, though single readings can be large or run the other way.
READOUT_TYPE: Potency

// known answers, use as guide
COc1cccc2c(NCc3ccccc3)nc(-n3c(N)nc4ccccc43)nc12 = 6.62 µM (active)
CCN1CCN(CC(=O)Nc2ccc(-c3cccc4c(=O)cc(N5CCOCC5)oc34)c3sc4ccccc4c23)CC1 = 2.09 µM (active)
CCN(CC)CCCCNc1ncc2cc(-c3cc(OC)cc(OC)c3)c(NC(=O)NC(C)(C)C)nc2n1 = 33.2 µM (active)
CNc1nccc(-c2cccnc2Oc2cc(C(=O)Nc3cccc(C(F)(F)F)c3)ccc2C)n1 = 14.8 µM (active)

Turning now to a further molecule:
Request: GET /values?readout=Potency&item= CC(C)C[C@H](NC(=O)CNC(=O)c1cc(Cl)ccc1Cl)B(O)O
Response: 0.059 µM (active)

###

Assay: qHTS of pediatric cancer cell lines to identify multiple opportunities for drug repurposing: Confirmatory screen for A673 cells (AID 1347110);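 also: potency is read from the fitted curve at half-maximal effect; cells exposed to compound for 48 h before the viability read; nearly all actives have a fitted effect of over 65% in size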
Conditions: A673 Ewing sarcoma cell viability; series mostly up to 45.9 µM
Results filed as inconclusive are left out. The source made the active and inactive calls. The call rests on the fitted dose curve; in most records, active means well fitted cell-killing curve with a large enough effect; inconclusive means small, poorly fitted or top-dose-only effect; inactive means flat fitted curve, though single readings scatter.
For each record, write down the corresponding Potency.

These recorded examples may help you get a feel for the data.
Nc1ccccc1NC(=O)c1ccc(CNC(=O)OCc2cccnc2)cc1 = 13.5 µM (active)
COc1ccc(F)c(F)c1C(=O)c1cnc(NC2CCN(S(C)(=O)=O)CC2)nc1N = 2.93 µM (active)
C=CC(=O)Nc1cccc(Oc2nc(Nc3ccc(N4CCN(C)CC4)cc3OC)ncc2Cl)c1 = 20.8 µM (active)
CC(C)(C)c1cnc(CSc2cnc(NC(=O)C3CCNCC3)s2)o1 = 0.414 µM (active)
CC[C@@]1(O)C(=O)OCc2c1cc1n(c2=O)Cc2cc3cc(O)ccc3nc2-1 = 0.0465 µM (active)
CN1CC[C@@H](c2c(O)cc(O)c3c(=O)cc(-c4ccccc4Cl)oc23)[C@@H](O)C1 = 0.522 µM (active)
Cc1cc(C(=O)N2CCN(c3cccc(Cl)c3)CC2)n(-c2ccccc2)n1 = 2.33 µM (active)
Cc1ccc(C(=O)Nc2ccc(CN3CCN(C)CC3)c(C(F)(F)F)c2)cc1C#Cc1cnc2cccnn12 = 4.65 µM (active)
Nc1ncnc2c1c(-c1cnc3[nH]ccc3c1)nn2C1CCCC1 = 3.69 µM (active)
Nc1ccccc1NC(=O)c1ccc(CNc2nccc(-c3cccnc3)n2)cc1 = 2.61 µM (active)

Record Potency per entry; entries follow.
1. Cc1cnc(Nc2ccc(F)cc2Cl)nc1-c1c[nH]c(C(=O)N[C@H](CO)c2cccc(Cl)c2)c1
2. Cc1ccc(C(=O)Nc2cccc(C(F)(F)F)c2)cc1-c1ccc2nc(NCCN3CCOCC3)ncc2c1
3. COc1cccc2c(NCc3ccccc3)nc(-n3c(N)nc4ccccc43)nc12
4. Cc1cn(-c2cc(NC(=O)c3ccc(C)c(Nc4nccc(-c5cccnc5)n4)c3)cc(C(F)(F)F)c2)cn1

Response:
["0.827 µM (active)", "13.1 µM (active)", "7.37 µM (active)", "20.8 µM (active)"]
